Tested on: c-Src
experiment-notes: phosphorylation enrichment, bacterial display (enrichment ratio); higher = better substrate or ligand; peptides without Tyr show the background
Kind request: treat 0.6 as inclusive, so phosphorylation enrichment at 0.6 or higher is 1, anything lower is 0.

>>> group_label("MNLLGYRHVRS [CHST4_Y359]")
0

Ask: Record KLKRSYCSPDI [USP8_Y717_S718C] ; criterion: phosphorylation enrichment no lower than 0.6. Met?
Reply: 0

Ask: Does the sequence PPGRSYSPYDY [TNS1_Y793] have recorded phosphorylation enrichment that is 0.6 or more?
Reply: 1

Ask: Can KPSLKYVTYGN [GALNTL5_Y404_G401S] be said to have phosphorylation enrichment at or above 0.6?
Reply: 0

Ask: Is reported phosphorylation enrichment greater than or equal to 0.6 here: DGDTRYSTFSE [TKTL1_Y318]
Reply: 0

Ask: Decide: is the reported value of phosphorylation enrichment for TFEPNYGTVKR [RAPGEF6_Y1447_Q1452R_YF] equal to or greater than 0.6?
Reply: 1

Ask: API: above_or_equal(metric=phosphorylation enrichment, cutoff=0.6) for item EMFNPCYGLFE [NEDD4L_Y679_Y679C]
Reply: 1

Ask: phosphorylation enrichment >= 0.6 for FSALDYKIFFF [WDPCP_Y210_L205F_YF] ?
Reply: 1

Ask: I'd appreciate it if you could say whether WNRDKYAATTT [TRIM39_Y439_G436R] has phosphorylation enrichment at least equal to 0.6.
Reply: 0

* * *

Some sequences, each annotated with its measured phosphorylation enrichment.
target-entity: FGFR1 (UniProt P11362)
Sequence (P11362 whole entry, looked up): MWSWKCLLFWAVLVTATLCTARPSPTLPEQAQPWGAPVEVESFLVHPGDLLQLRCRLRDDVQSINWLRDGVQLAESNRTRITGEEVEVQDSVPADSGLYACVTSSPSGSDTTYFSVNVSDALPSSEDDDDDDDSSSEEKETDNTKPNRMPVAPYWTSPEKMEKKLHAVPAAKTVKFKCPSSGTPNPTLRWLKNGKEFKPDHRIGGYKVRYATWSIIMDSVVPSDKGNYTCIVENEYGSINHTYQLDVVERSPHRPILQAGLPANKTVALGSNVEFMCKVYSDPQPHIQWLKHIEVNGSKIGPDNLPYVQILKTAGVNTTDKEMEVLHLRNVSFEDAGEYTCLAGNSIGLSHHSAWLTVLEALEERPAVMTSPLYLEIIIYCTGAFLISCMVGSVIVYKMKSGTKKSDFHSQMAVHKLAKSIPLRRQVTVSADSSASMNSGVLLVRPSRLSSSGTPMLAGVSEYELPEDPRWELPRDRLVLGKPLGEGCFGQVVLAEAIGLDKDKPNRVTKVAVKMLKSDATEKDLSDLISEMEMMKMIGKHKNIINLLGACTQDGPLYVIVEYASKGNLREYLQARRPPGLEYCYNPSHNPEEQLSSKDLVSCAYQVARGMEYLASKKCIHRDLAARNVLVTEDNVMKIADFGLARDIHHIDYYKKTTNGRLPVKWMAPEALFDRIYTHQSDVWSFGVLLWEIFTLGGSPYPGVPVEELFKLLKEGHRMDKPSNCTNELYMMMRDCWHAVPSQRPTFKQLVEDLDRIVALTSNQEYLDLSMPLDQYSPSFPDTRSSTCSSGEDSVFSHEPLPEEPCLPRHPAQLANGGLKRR
experiment-notes: phosphorylation enrichment, bacterial display (enrichment ratio); higher = better substrate or ligand; peptides without Tyr show the background
// no unit string in output, number only

Example cases with answers are listed next.
>>> endpoint_value("TFGQVYKGRHV [TNIK_Y40_YF]")
0.347
>>> endpoint_value("LEVETYRRLLD [KRT12_Y429_I426V]")
0.396
>>> endpoint_value("VPVNGYQPVPA [ROR2_Y824]")
0.55
>>> endpoint_value("FSDQVYRQRRK [TH_Y230]")
0.474
>>> endpoint_value("FLRTGYSIPFG [TGM1_Y370_V372I_YF]")
0.486

Form field phosphorylation enrichment, entry GSPPPYRRRKR [MBD1_Y403] : 0.464

The recorded phosphorylation enrichment for entry KLKRSYCSPDI [USP8_Y717_S718C] equals 0.415

Entry KMKGDYYCYLA [YWHAG_Y130_R132C] ; phosphorylation enrichment = 11

* * *

Catalogue of SH2 binding enrichment values
target-entity: Grb2 SH2 (UniProt P62993)
Sequence (P62993 whole entry, looked up): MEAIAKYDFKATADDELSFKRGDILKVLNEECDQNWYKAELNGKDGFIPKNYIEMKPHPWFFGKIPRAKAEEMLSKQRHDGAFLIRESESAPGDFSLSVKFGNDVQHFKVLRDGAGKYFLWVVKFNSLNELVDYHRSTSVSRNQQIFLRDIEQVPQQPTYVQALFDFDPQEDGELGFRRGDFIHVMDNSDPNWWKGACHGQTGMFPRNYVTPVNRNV
experiment-notes: SH2 binding enrichment of the phosphorylated peptide, bacterial display (enrichment ratio); higher = better substrate or ligand; peptides without Tyr show the background
Give only the figure.

>>> endpoint_value("AKQVGYENAGT [PC_Y304]")
4.11
>>> endpoint_value("HNVAIYEGYAL [ACTC1_Y168_P166A]")
0.716
>>> endpoint_value("QMVRMYASSFM [AVPR2_Y124_G122R_YF]")
0.831
>>> endpoint_value("SHLEDYPFNAE [AKR1B10_Y310]")
0.928
>>> endpoint_value("DVMDLYKTLRG [NR3C1_Y30_F29L]")
0.724

SH2 binding enrichment in this record for INPIIYAFVGG [CCR5_Y297_E302G] : 0.746

The recorded SH2 binding enrichment for PSSRDYKHNIK [PIGN_Y227] is 0.895
